target: UniProt:P14902; assay: IDO1 Cellular Assay in Hela Cells Stimulated with IFNγ; type: cell-based; conditions: Hela cells stimulated with IFNγ 100 ng/mL; read-out: IDO1 HELA Cell Assay, IC50
Sequence (P14902 whole entry): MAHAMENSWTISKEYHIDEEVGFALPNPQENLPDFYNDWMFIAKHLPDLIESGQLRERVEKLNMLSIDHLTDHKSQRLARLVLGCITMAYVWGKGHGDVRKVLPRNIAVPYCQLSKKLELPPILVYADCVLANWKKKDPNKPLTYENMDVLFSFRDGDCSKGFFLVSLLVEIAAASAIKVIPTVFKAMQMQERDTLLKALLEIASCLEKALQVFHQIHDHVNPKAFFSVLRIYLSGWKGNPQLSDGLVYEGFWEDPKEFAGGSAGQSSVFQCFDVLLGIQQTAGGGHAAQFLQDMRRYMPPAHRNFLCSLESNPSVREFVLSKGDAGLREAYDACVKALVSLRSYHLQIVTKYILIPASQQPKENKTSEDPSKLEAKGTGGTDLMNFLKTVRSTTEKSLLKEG
RECORDED METRIC: IC50
Include the unit right after the number.

>  <MOLECULE>
CN1C(=O)NC[C@@H]1CSc1nonc1/C(=N/O)Nc1ccc(F)c(Br)c1

>  <OBSERVED RESULT>
118 nM

$$$$

--- query ---
query: Dear colleague, I am looking for the recorded IC50 of the following molecule: O=c1ccc(CSc2nonc2/C(=N/O)Nc2ccc(F)c(Br)c2)n[nH]1
result: 64.6 nM
